- target_or_system: recombinant human DP IV, wild type (human) (UniProt P27487)
- Sequence (P27487 other isoform, or with tags, fused parts or gaps): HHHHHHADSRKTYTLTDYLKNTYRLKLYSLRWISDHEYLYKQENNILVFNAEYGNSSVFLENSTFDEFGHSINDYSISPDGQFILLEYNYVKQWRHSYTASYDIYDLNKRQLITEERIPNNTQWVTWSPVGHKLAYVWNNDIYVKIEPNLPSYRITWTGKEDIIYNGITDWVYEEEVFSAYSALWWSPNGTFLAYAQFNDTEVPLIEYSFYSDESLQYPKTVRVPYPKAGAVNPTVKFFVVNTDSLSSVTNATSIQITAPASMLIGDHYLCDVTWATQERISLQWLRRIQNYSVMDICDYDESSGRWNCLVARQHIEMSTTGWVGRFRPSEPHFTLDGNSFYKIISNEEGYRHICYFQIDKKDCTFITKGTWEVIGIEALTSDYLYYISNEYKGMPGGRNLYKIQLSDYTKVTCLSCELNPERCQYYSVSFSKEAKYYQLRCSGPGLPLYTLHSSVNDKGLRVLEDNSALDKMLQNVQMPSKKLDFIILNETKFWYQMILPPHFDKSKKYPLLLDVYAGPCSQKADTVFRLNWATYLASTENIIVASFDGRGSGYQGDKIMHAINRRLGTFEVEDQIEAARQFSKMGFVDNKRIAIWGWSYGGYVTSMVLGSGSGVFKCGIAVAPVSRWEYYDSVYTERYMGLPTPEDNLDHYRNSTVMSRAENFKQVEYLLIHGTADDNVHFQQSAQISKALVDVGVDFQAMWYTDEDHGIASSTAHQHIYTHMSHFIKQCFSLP
- protocol: MALDI-TOF MS, inhibition of DP IV-catalyzed truncation of the substrate PACAP-27 after preincubation with TFTSDY
quantity_name: Ki (µM)
Reply with just the number (in µM).

Ask: I am curious: what Ki value has been reported for TFTSDY [hexapeptide TFTSDY] ?
Result: 26.7

Data origin, for the record: patent US20060234940A1
